Source listed as PubChem BioAssay (NCI).

System: SK-MEL-2 melanoma
runDescription: NCI-60 one-dose screen, 48 h (100 = growth as untreated, 0 = no growth, -100 = all killed)
conditionLabel: 10 µM unless noted
About 83,000 compounds went through this panel and 20% of them were active in at least one assay; those are over-represented in the sample as a whole.
We begin with a simple list: items and their reported growth.
# output: bare number, implied unit %

See these solved cases before continuing.
C[N+](C)(C)CCOC(OCC[N+](C)(C)C)(c1ccccc1)c1ccccc1
99.4
CCCCOc1nc2ccc(Cl)cc2cc1/C=C/C(=O)/C=C1/CC(c2cc3cc(Cl)ccc3nc2OCCCC)Nc2ccccc2N1 (stereo not given)
102
Cl.Fc1c[c-]c(-c2ccccn2)c(F)c1.[Pt].c1ccc([PH+](C[PH+](c2ccccc2)c2ccccc2)c2ccccc2)cc1
-74.6
CS(=O)(=O)c1ccc(N/N=C/c2c(-c3ccc(S(C)(=O)=O)cc3)[nH]c3ccc(F)cc23)cc1
3.8
O=C1c2cccc3c(-c4ccc(-c5nc6c7ccccc7c7ccccc7c6[nH]5)cc4)ccc(c23)C(=O)N1CCN1CCNCC1
105

Query "Cc1ccc(O)c(C(=O)c2ccccc2Cl)c1" yields growth of 112

Consider "CC1(C)N=C(N)N=C(N)N1c1cccc(CN)c1" . Its measured growth is 99.8

get_value(item= "C=C1C(=O)O[C@H]2[C@H]1CC/C(Cn1cc(CNCCc3c[nH]c4ccccc34)nn1)=C\CC[C@@]1(C)O[C@@H]21" , readout=growth) returns 61.4

Reported growth of "C[C@@H]1CC[C@@H]2[C@@H]1[C@H](OC(=O)/C=C/c1ccccc1)[C@]1(CCCOCCOCCOCCOC(=O)CCCC[C@@H]3SC[C@@H]4NC(=O)N[C@@H]43)C[C@@H](OC(=O)CO)[C@@]2(C)O1" : 108

// field: growth; key: "CCCCCCNc1cc(C)nc2ccc(OC)cc12" ; value = 73.7

====

Tested on: MDA-MB-231 breast
runDescription: NCI-60 one-dose screen, 48 h
conditionLabel: 10 µM unless noted
About 83,000 compounds went through this panel and 20% of them were active in at least one assay; those are over-represented in the sample as a whole. Active and inactive are the calls of the source. Rule for the calls: active = growth percent below 10; inactive = the rest.
Select the correct class. Options are active, inactive and nothing else.

Use these answered entries as a reference point.
CCOC(=O)c1ccc(NC(=O)CCCN(CC)CC)cc1
inactive
CC(=O)c1ccc2c(c1)CCN2
inactive
Cn1ncc2c(Nc3ccc(Br)cc3)nc(Nc3ccc(Br)cc3)nc21
inactive

Ask: Could you please tell me the result logged for "CN(C)c1cnccn1" in this assay?
Result: inactive

Ask: Field: outcome | Entry: "C(=C\c1nc2ccccc2[nH]1)/c1nc2ccccc2[nH]1"
Result: inactive

Ask: Answer briefly: the call reported for CCN(CC)CC(O)CNc1c2ccc(Cl)cc2nc2ccc(OC)cc12 (stereo not drawn) in this assay.
Result: active

Ask: Record lookup: outcome of this test for CCCCOC(=O)c1ccc(NC(=O)C(C)N2CCOCC2)cc1 (stereo not drawn) ?
Result: inactive

Ask: Lab log entry: "CO[C@H]1/C=C/O[C@@]2(C)Oc3c(C)c(O)c4c(c3C2=O)C(=O)C(/C=N/N(c2ccccc2)c2ccccc2)=C(NC(=O)/C(C)=C\C=C\[C@H](C)[C@H](O)[C@@H](C)[C@@H](O)[C@@H](C)[C@H](OC(C)=O)[C@@H]1C)C4=O" — outcome as called in the assay?
Result: active

====

System: NCI-H322M lung
runDescription: NCI-60 one-dose screen, 48 h (100 = growth as untreated, 0 = no growth, -100 = all killed)
conditionLabel: 10 µM unless noted
Compounds without any hit were thinned out: in the full panel of roughly 83,000, 20% have a hit.
Output class 1 for records whose growth is lower than 90%, class 0 for records at or above 90%.

Solved cases below.
C=C1c2c(C)nn(-c3ccc(NC(C)=O)cc3)c2N(C)C23CC1C1(C)c4c(C)nn(-c5ccc(NC(C)=O)cc5)c4N(C)C(C)(CC12)C3 (stereo not given)
class 1
CC(=O)Nc1cccc(C2=CC(c3ccc(C)cc3)n3ncnc3N2)c1 (stereo not given)
class 0
COc1cc(-c2cccc([N+](=O)[O-])c2)c(-c2nc(-c3ccccc3)c(-c3ccccc3)n2C2CC2)cc1OC
class 1

Ask: Lab log: compare recorded growth with 90%; is it strictly lower for OC(COc1cccc2ccccc12)CN1CCN(c2ccccc2)CC1 (stereo not given) ?
Result: class 0

Ask: Hello, is growth of the following compound strictly smaller than 90%? "O=C1C=CC(=Nc2cc(Br)c(O)c(Br)c2)C=C1"
Result: class 0

Ask: In plain terms, does "C/C(=N\NC(N)=S)c1nc2ccc(Cl)cc2[nH]1" come in under 90% for growth?
Result: class 1

Ask: Report whether reported growth is lower than 90% (strictly) for "COc1ccc(-c2nnc(-c3ccc4c(c3)nc(-c3ccccc3)n4C3CCCCC3)o2)cc1"
Result: class 1

Ask: Hi there! Is growth for "CCc1nc2ccccc2[nH]1" below 90%, do you know?
Result: class 0

Ask: Could you please tell me whether growth recorded for "CCCCCCCC/C=C/CCCCCCCC1=NCC[N+]1(CCO)CCO" is less than 90%?
Result: class 1

Ask: A record lists "N=C(N)c1ccc(-c2ccc(-c3ccc(Cl)cn3)s2)cc1" . Is its growth below 90%?
Result: class 1

Ask: Would you kindly verify if growth of "COc1cc2nc(Nc3ccc(F)cc3)nc(N)c2cc1OC" is strictly less than 90%?
Result: class 0

====

System: UACC-62 melanoma
runDescription: NCI-60 one-dose screen, 48 h (100 = growth as untreated, 0 = no growth, -100 = all killed)
conditionLabel: 10 µM unless noted
This is part of a sample that, as a whole, favours compounds with a hit. Of some 83,000 tested, about 20% had one in any assay.
testReadout: growth (%)
Your answer is read as %, so omit the unit and give the number.

COc1cccc(-c2nc3sccn3c2-c2ccnc(NCCNS(=O)(=O)c3c(Cl)cccc3Cl)c2)c1
28.6
COc1cc(NC(=O)c2cccc(-c3cc(=O)c4c(O)c(OC)c(OC)cc4o3)c2)cc(OC)c1OC
49.4
COc1ccc(C2=NC(=O)NC2c2ccc(OC)cc2)cc1 (configuration not stated)
47.2
CC(C)(C)Nc1c(-c2c3ccccc3cc3ccccc23)nc2ccccn12
50.6
CC(C)(C)N1CC(OC(N)=O)C1
103
Cn1c(NCCc2ccc(O)c(O)c2)nc2c1c(=O)n(Cc1ccc(Cl)cc1)c(=O)n2C
82.7
CCNCCNc1cc(-c2ccc(Cl)cc2)c(C#N)c2nc3ccccc3n12
-82.7
OCCCCc1nccc2c1[nH]c1ccccc12
96.8

Quick note, growth for "Cc1cnc(Nc2ccc(OCCN3CCCC3)cc2)nc1NCc1ccco1" landed at 86.9

Note to self: growth recorded for O=c1ccn(C2OC(F)(CO)C(O)C2F)c(=O)[nH]1 (configuration not stated) was 103

Memo: "COc1ccc(OC)c(/C=C2\COc3ccc(O)cc3C2=O)c1" , reported growth: 84.3

The compound identified as "COc1cc2c(O)n(CCCn3ccnc3)c3c4cnc5cccc(c(=O)c3c2cc1OC)c54" registered its growth at 15

====

Test system: OVCAR-8 ovarian
runDescription: NCI-60 one-dose screen, 48 h (100 = growth as untreated, 0 = no growth, -100 = all killed)
conditionLabel: 10 µM unless noted
This is part of a sample that, as a whole, favours compounds with a hit. Of some 83,000 tested, about 20% had one in any assay.
testReadout: growth (%)
A number alone suffices; assume %.

Per the record, "O=C(Nc1cccc2[nH]c(C(F)(F)F)nc12)c1cc(Cl)ccc1Cl" has growth of 26.5

Lab book: growth of "Fc1ccc(Nc2nc(Nc3ccc(-c4nc5ccccc5[nH]4)cc3)c3cn[nH]c3n2)cc1" noted as 56.8

For "O=C1Nc2ccccc2/C1=N/N=C/c1ccsc1" the compound record lists growth as 102

Entry "COc1ccc(OC)c(/C=C2\COc3ccc(O)cc3C2=O)c1" — recorded growth = 100

====

Test system: U251 CNS
runDescription: NCI-60 one-dose screen, 48 h (100 = growth as untreated, 0 = no growth, -100 = all killed)
conditionLabel: 10 µM unless noted
Compounds without any hit were thinned out: in the full panel of roughly 83,000, 20% have a hit.
Lab note: compare growth with 20%, writing Yes if less and No if equal or more.

Answered cases to consult:
CC(C)CCC[C@@H](C)[C@H]1CCC2C3=CCn4c(=O)ccc(=O)n4C3CC[C@@]21C (stereo partly specified)
Yes
COc1ccc(N=c2nc3sc4cc(Cl)ccc4n3c(N)c2C#N)cc1
No
CC(C)OCCCNCC(=O)Nc1ccc(S(=O)(=O)c2ccc(NC(=O)CNCCCOC(C)C)cc2)cc1
No
CN1CCN(CCCOc2ccc3nc(Nc4cc(Cl)cc(Cl)c4)ccc3c2)CC1
Yes
CCCCOc1ccc(NC(=O)n2nc(N=NN(C)C)c3ccc(Cl)cc32)cc1
No

Moving on to the next molecule.
Ask: hey, is growth for "Cc1cc(-c2ccccc2)cc(SC#N)[n+]1[O-]" lower than 20% or not?
Result: No
